System: Escherichia coli TOP10;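 further: peptides expressed intracellularly from a pBAD plasmid library in pooled LB shake-flask culture, induced with 0.3% L-arabinose, DNA abundance read by NGS, three biological replicates, DESeq2 with apeglm shrinkage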
Experiment: shrunken log2 fold change of peptide-encoding DNA abundance (4.5 h post-induction vs induction); higher = less antimicrobial activity (less host growth inhibition)
Details: time post-induction: 4.5 h; library: site-saturation at positions 5, 18, 19, 20
Overview of recorded shrunken log2 fold change for various sequences
observable: shrunken log2 fold change

INSERT INTO measurements (construct_sequence, observable, readout_value) VALUES
  ('RRIRKRPPRLPRPRPRPIRWPRP', 'shrunken log2 fold change', 0.0019),
  ('RRIRMRPPRLPRPRPRPGVWPRP', 'shrunken log2 fold change', 0.723),
  ('RRIRQRPPRLPRPRPRPQLWPRP', 'shrunken log2 fold change', -0.135),
  ('RRIRYRPPRLPRPRPRPYQHPRP', 'shrunken log2 fold change', -1.87),
  ('RRIRGRPPRLPRPRPRPTTKPRP', 'shrunken log2 fold change', 1),
  ('RRIRVRPPRLPRPRPRPRPVPRP', 'shrunken log2 fold change', 0.515),
  ('RRIRIRPPRLPRPRPRPSCHPRP', 'shrunken log2 fold change', -0.243),
  ('RRIRHRPPRLPRPRPRPPSIPRP', 'shrunken log2 fold change', -0.165),
  ('RRIRPRPPRLPRPRPRPCPIPRP', 'shrunken log2 fold change', 0.082),
  ('RRIRQRPPRLPRPRPRPGLYPRP', 'shrunken log2 fold change', 0.224),
  ('RRIRPRPPRLPRPRPRPHYHPRP', 'shrunken log2 fold change', -0.936),
  ('RRIRQRPPRLPRPRPRPYYTPRP', 'shrunken log2 fold change', -0.363),
  ('RRIRQRPPRLPRPRPRPCCYPRP', 'shrunken log2 fold change', -0.0451),
  ('RRIRLRPPRLPRPRPRPHNVPRP', 'shrunken log2 fold change', 0.0245),
  ('RRIRVRPPRLPRPRPRPLEQPRP', 'shrunken log2 fold change', -0.0372),
  ('RRIRYRPPRLPRPRPRPVKCPRP', 'shrunken log2 fold change', -1.32),
  ('RRIRERPPRLPRPRPRPFWHPRP', 'shrunken log2 fold change', -0.0333),
  ('RRIRRRPPRLPRPRPRPDDTPRP', 'shrunken log2 fold change', 0.139),
  ('RRIRQRPPRLPRPRPRPTLSPRP', 'shrunken log2 fold change', 0.322),
  ('RRIRDRPPRLPRPRPRPHLNPRP', 'shrunken log2 fold change', -0.152),
  ('RRIRPRPPRLPRPRPRPERHPRP', 'shrunken log2 fold change', 0.00192),
  ('RRIRHRPPRLPRPRPRPECVPRP', 'shrunken log2 fold change', 0.321),
  ('RRIRGRPPRLPRPRPRPMADPRP', 'shrunken log2 fold change', 0.173),
  ('RRIRERPPRLPRPRPRPWGLPRP', 'shrunken log2 fold change', -0.026),
  ('RRIRCRPPRLPRPRPRPGAVPRP', 'shrunken log2 fold change', 0.202),
  ('RRIRVRPPRLPRPRPRPYHNPRP', 'shrunken log2 fold change', -0.946),
  ('RRIRKRPPRLPRPRPRPFLFPRP', 'shrunken log2 fold change', -0.0622),
  ('RRIRARPPRLPRPRPRPQWQPRP', 'shrunken log2 fold change', -0.00057),
  ('RRIRFRPPRLPRPRPRPQEKPRP', 'shrunken log2 fold change', -0.0525),
  ('RRIRRRPPRLPRPRPRPGVRPRP', 'shrunken log2 fold change', 0.318),
  ('RRIRSRPPRLPRPRPRPLREPRP', 'shrunken log2 fold change', 0.369),
  ('RRIRWRPPRLPRPRPRPVSPPRP', 'shrunken log2 fold change', 0.175),
  ('RRIRQRPPRLPRPRPRPNLSPRP', 'shrunken log2 fold change', -0.258),
  ('RRIRHRPPRLPRPRPRPIAWPRP', 'shrunken log2 fold change', 0.0843),
  ('RRIRVRPPRLPRPRPRPYDMPRP', 'shrunken log2 fold change', -0.382),
  ('RRIRNRPPRLPRPRPRPRKTPRP', 'shrunken log2 fold change', -0.0384),
  ('RRIRKRPPRLPRPRPRPSQEPRP', 'shrunken log2 fold change', -0.0223),
  ('RRIRSRPPRLPRPRPRPIDAPRP', 'shrunken log2 fold change', -0.101),
  ('RRIRFRPPRLPRPRPRPQISPRP', 'shrunken log2 fold change', -0.217),
  ('RRIRLRPPRLPRPRPRPFCSPRP', 'shrunken log2 fold change', 1.91),
  ('RRIRQRPPRLPRPRPRPCKAPRP', 'shrunken log2 fold change', -0.218),
  ('RRIRHRPPRLPRPRPRPTHQPRP', 'shrunken log2 fold change', 0.243),
  ('RRIRLRPPRLPRPRPRPCLVPRP', 'shrunken log2 fold change', 0.127),
  ('RRIRHRPPRLPRPRPRPVRCPRP', 'shrunken log2 fold change', 0.592),
  ('RRIRVRPPRLPRPRPRPVQKPRP', 'shrunken log2 fold change', 0.0709),
  ('RRIRCRPPRLPRPRPRPADHPRP', 'shrunken log2 fold change', 0.0117),
  ('RRIRIRPPRLPRPRPRPYSQPRP', 'shrunken log2 fold change', -0.269),
  ('RRIRRRPPRLPRPRPRPCLYPRP', 'shrunken log2 fold change', -0.117),
  ('RRIRYRPPRLPRPRPRPGCCPRP', 'shrunken log2 fold change', -0.309),
  ('RRIRIRPPRLPRPRPRPSAVPRP', 'shrunken log2 fold change', -0.306),
  ('RRIRTRPPRLPRPRPRPDQRPRP', 'shrunken log2 fold change', -0.0808),
  ('RRIRFRPPRLPRPRPRPLYNPRP', 'shrunken log2 fold change', -0.644),
  ('RRIRSRPPRLPRPRPRPYHVPRP', 'shrunken log2 fold change', -1.09),
  ('RRIRNRPPRLPRPRPRPVIWPRP', 'shrunken log2 fold change', -0.112),
  ('RRIRVRPPRLPRPRPRPLDGPRP', 'shrunken log2 fold change', -0.267),
  ('RRIRSRPPRLPRPRPRPFPCPRP', 'shrunken log2 fold change', -0.124),
  ('RRIRWRPPRLPRPRPRPYWLPRP', 'shrunken log2 fold change', -0.0807),
  ('RRIRARPPRLPRPRPRPHFNPRP', 'shrunken log2 fold change', 0.122),
  ('RRIRYRPPRLPRPRPRPKCFPRP', 'shrunken log2 fold change', -0.0925),
  ('RRIRTRPPRLPRPRPRPTWLPRP', 'shrunken log2 fold change', 0.511),
  ('RRIRARPPRLPRPRPRPYQIPRP', 'shrunken log2 fold change', -0.385);
